Catalogue of melting point readings, one per entry.

COMPOUND	RECORDED RESULT
O=S(=O)(c1ccc(Cl)cc1)C(c1ccc(CN2CCOCC2)cn1)c1cc(F)ccc1F (stereo not drawn) [Example 337]	120 to 121 °C
CC(C)(C)OC(=O)N1CCC(C(c2cc(F)ccc2F)S(=O)(=O)c2ccc(Cl)cc2)CC1 (stereo not drawn) [Example 290]	193 to 196 °C
O=S(=O)(c1ccc(Cl)cc1)C(CCC1CCCC1)c1cc(F)ccc1F (stereo not drawn) [Example 315]	93 to 94 °C
CS(=O)(=O)CCCCC(c1cccc(Cl)c1F)S(=O)(=O)c1ccc(Cl)cc1 (stereo not drawn) [Example 78]	131 to 132 °C
O=c1oc2ccccc2c(O)c1C(Sc1ccc(Cl)cc1)c1cc(F)ccc1F (stereo not drawn)	146 to 147 °C
O=S(=O)(c1ccc(Cl)cc1)C(CCSCCO)c1cc(F)ccc1F (stereo not drawn) [Example 250]	108 to 110 °C

## Task // query melting point value for entry O=S(=O)(c1ccc(Cl)cc1)C(CCn1cccc1)c1cc(F)ccc1F (stereo not drawn) [Example 297]
## Result 108 to 113 °C

###

Catalogue of melting point readings, one per entry.

// known answers, use as guide
COMPOUND	RECORDED RESULT
O=S(=O)(c1ccc(Cl)cc1)C(c1ccccn1)c1cc(F)ccc1F (stereo not drawn) [Example 135]	171 to 172 °C
COC(=O)N1CCC(c2cc(F)ccc2F)(S(=O)(=O)c2ccc(Cl)cc2)CC1 [Example 267]	123 to 126 °C
O=S(=O)(c1ccc(Cl)cc1)C(c1ccncc1)C1CCCC1 (stereo not drawn) [Example 121]	133 to 135 °C
O=S(=O)(c1ccc(Cl)cc1)C(Cc1cccnc1)c1cc(F)ccc1F (stereo not drawn) [Example 219]	162 to 163 °C
O=C(O)c1ccc(C(c2cc(F)ccc2F)S(=O)(=O)c2ccc(Cl)cc2)nc1 (stereo not drawn) [Example 338]	> 230 °C
O=S(=O)(c1ccc(Cl)cc1)C1(c2cnccc2Cl)CCCCC1 [Example 110]	145 to 147 °C
Cc1ccnc(C(c2cc(F)ccc2F)S(=O)(=O)c2ccc(Cl)cc2)c1 (stereo not drawn) [Example 138]	116 to 117 °C
O=S(=O)(c1ccc(Cl)cc1)C(CCCCCO)c1cc(F)ccc1F (stereo not drawn) [Example 32]	98 to 99 °C

## Task // query melting point value for entry Cl.NCCCC(c1cc(F)ccc1F)S(=O)(=O)c1ccc(Cl)cc1 (stereo not drawn)
## Result 232 to 233 °C

## Task // query melting point value for entry Fc1ccc(F)c(C(Sc2ccc(Cl)cc2)c2cc(Cl)ncc2Cl)c1 (stereo not drawn) [Example 342]
## Result 128 to 129 °C

## Task // query melting point value for entry O=S(=O)(c1ccc(Cl)cc1)C(CCCCO)c1cc(F)ccc1F (stereo not drawn) [Example 29]
## Result 84 to 86 °C

## Task // query melting point value for entry NC(=O)OCCC(c1cc(F)ccc1F)S(=O)(=O)c1ccc(Cl)cc1 (stereo not drawn) [Example 214]
## Result 139 to 140 °C

## Task // query melting point value for entry CCCCCCCC(c1cc(F)ccc1F)S(=O)(=O)c1ccc(Cl)cc1 (stereo not drawn) [Example 324]
## Result 47 to 48 °C

## Task // query melting point value for entry CC(C)(C)OC(=O)NCCCC(c1cc(F)ccc1F)S(=O)(=O)c1ccc(Cl)cc1 (stereo not drawn) [Example 226]
## Result 119 to 120 °C

## Task // query melting point value for entry CS(=O)(=O)CCCCC(c1ccc2ccccc2c1)S(=O)(=O)c1ccc(Cl)cc1 (stereo not drawn) [Example 67]
## Result 146 to 147 °C

## Task // query melting point value for entry O=S(=O)(c1ccc(Cl)cc1)C(c1ccc(C2OCCO2)cn1)c1cc(F)ccc1F (stereo not drawn) [Example 330]
## Result 167 to 168 °C

## Task // query melting point value for entry O=S(=O)(c1ccc(Cl)cc1)C1(c2cc(F)ccc2F)CCOCC1 [Example 48]
## Result 157 to 160 °C

## Task // query melting point value for entry CS(=O)(=O)CCCCC(c1ccccn1)S(=O)(=O)c1ccc(Cl)cc1 (stereo not drawn) [Example 70]
## Result 140 to 141 °C

## Task // query melting point value for entry CC(C)(c1cc(F)ccc1F)S(=O)(=O)c1ccc(Cl)cc1 [Example 232]
## Result 147 to 148 °C

## Task // query melting point value for entry CS(=O)(=O)CCCCC(c1cnco1)S(=O)(=O)c1ccc(Cl)cc1 (stereo not drawn) [Example 118]
## Result 164 to 166 °C

## Task // query melting point value for entry O=S(=O)(c1ccc(Cl)cc1)C(C/C=C/CO)c1cc(F)ccc1F (stereo not drawn) [Example 248]
## Result 108 to 109 °C

## Task // query melting point value for entry O=S(=O)(c1ccc(Cl)cc1)C1(c2nnnn2Cc2ccccc2)CCCCC1 [Example 195]
## Result 154 to 155 °C

The measured values listed here are drawn from patent US7399775B2.
